For each of the compounds below, state its pIC50.
target: AKT1 E17K (Homo sapiens, UniProt P31749, E17K); construct: expressed in transfected cells; host or cells: HEK293; test: Live cell AKT1 E17K target engagement by NanoBRET competitive probe displacement; assay type: cell-based; conditions: HEK293 cells transfected with kinase-NanoLuciferase fusion, 2 h at 37° C.
Sequence (P31749 whole entry E17K, the tested form may be a part): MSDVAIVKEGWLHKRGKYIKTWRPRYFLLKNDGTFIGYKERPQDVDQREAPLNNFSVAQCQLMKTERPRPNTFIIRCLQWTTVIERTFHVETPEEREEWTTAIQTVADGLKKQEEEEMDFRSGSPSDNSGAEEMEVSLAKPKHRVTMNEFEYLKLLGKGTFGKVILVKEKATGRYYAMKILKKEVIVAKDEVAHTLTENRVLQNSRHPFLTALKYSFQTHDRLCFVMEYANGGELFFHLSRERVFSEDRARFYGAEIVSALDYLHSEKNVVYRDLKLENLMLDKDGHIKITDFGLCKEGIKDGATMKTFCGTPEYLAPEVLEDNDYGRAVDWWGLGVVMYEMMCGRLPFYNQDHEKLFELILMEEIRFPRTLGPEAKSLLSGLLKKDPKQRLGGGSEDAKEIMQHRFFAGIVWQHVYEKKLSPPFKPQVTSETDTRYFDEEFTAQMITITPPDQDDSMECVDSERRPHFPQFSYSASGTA
One number for each entry, as −log10 of the molar value.

[ask] Look up pIC50: C=CC(=O)N1CCC(N[C@H]2CCc3cc(-n4c(-c5ccc(F)cc5)nc5ccc(-n6cccn6)nc54)ccc32)CC1 [Example 247]
[reply] 6.95

Consider the following items and state reported pIC50 for each.
1. C=CC(=O)N1CCN(C2CCc3cc(-n4c(-c5cccnc5N)nc5ccc(-n6cccn6)nc54)ccc32)CC1 (stereo not drawn) [Example 204]
2. C=CC(=O)N1CCC(N[C@@H]2c3ccc(-n4c(-c5cccnc5N)nc5ccc(-n6ccc(F)n6)nc54)cc3CC2F)C[C@H]1C (single isomer, unassigned) [Example 274]
3. CN(CC#N)C(=O)N1CCC(N[C@H]2CCc3cc(-n4c(-c5cccnc5N)nc5ccc(-n6cccn6)nc54)ccc32)CC1 [Example 128]
4. C=CC(=O)N1CCC(N[C@@H]2c3ccc(-n4c(-c5cccnc5N)nc5ccc(-n6cccn6)nc54)cc3CC2OC)CC1 (single isomer, unassigned) [Example 162]
5. C=CC(=O)N1CCC(N[C@H]2CCc3cc(-n4c(-c5cccnc5N)nc5ccc(-n6cccn6)nc54)ccc32)C[C@H]1C(F)F (single isomer, unassigned) [Example 215]
6. C=CC(=O)N1CCC(N[C@H]2CCc3cc(-n4c(-c5cccnc5N)nc5ccc(-n6ccc(C7(F)CC7)n6)nc54)ccc32)CC1 [Example 323]
7. C=C1CCN(c2ccccc2C(=O)N[C@H]2CCc3cc(-n4c(-c5cccnc5N)nc5ccc(-n6cccn6)nc54)ccc32)C1=O [Example 42]

[reply]
1: 6.54; 2: 7.73; 3: 8.06; 4: 6.19; 5: 8.34; 6: 8.21; 7: 6.05

Could you tell me pIC50 for each of these compounds? They are listed below.
1. C=CC(=O)N1CCC(N[C@@H]2c3ccc(-n4c(-c5ccccc5)nc5ccc(-c6ccccc6)nc54)cc3CC2F)CC1 (single isomer, unassigned) [Example 324]
2. C=CC(=O)N1CCC(N[C@H]2CCc3cc(-n4c(-c5cccnc5N)nc5ccc(C)nc54)ccc32)CC1 [Example 50]
3. C=CC(=O)N1C[C@H]2C[C@@H](C1)C2N[C@H]1CCc2cc(-n3c(-c4cccnc4N)nc4ccc(-n5cccn5)nc43)ccc21 (single isomer, unassigned) [Example 59]

[reply]
1: 7.79; 2: 7.02; 3: 6.62

---

biological target: AKT1 WT (Homo sapiens, UniProt P31749); test: Live cell AKT1 WT target engagement by NanoBRET competitive probe displacement; conditions: HEK293 cells transfected with kinase-NanoLuciferase fusion, 2 h at 37° C.
Sequence (P31749 whole entry, the tested form may be a part): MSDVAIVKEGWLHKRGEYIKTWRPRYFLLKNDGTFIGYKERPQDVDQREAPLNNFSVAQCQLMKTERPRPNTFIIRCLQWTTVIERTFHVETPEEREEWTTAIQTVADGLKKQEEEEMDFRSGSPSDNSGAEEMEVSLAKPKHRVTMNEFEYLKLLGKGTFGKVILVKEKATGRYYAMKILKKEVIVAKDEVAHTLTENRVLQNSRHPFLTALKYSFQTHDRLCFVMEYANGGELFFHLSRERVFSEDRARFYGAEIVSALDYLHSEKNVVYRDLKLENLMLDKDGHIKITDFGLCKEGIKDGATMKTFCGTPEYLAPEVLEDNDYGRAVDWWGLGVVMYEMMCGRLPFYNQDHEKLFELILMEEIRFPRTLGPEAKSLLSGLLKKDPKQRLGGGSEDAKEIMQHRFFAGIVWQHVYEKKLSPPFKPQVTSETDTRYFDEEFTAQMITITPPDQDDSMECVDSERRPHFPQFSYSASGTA
Exercise: state measured pIC50 for each of the compounds provided.
Answers are plain numbers, as −log10 of the molar value.

Below: 2 compounds and their reported pIC50.
[ask] Dear colleague, I am looking for the recorded pIC50 of the following compound: C=CC(=O)N1CCC(N[C@H]2CCc3cc(-n4c(-c5cccnc5N)nc5ccc(-n6cccn6)nc54)ccc32)CC1
[reply] 7.77

[ask] Request the reported pIC50 associated with C=CC(=O)N1CCC(N[C@H]2CCc3cc(-n4c(-c5cccnc5N)nc5ccc(-n6cccn6)nc54)ccc32)C(F)C1 (single isomer, unassigned) [Example 103]
[reply] 7.71

Further cases:
[ask] I have this compound here, C=CC(=O)N(C)c1ccccc1C(=O)N[C@H]1CCc2cc(-n3c(-c4cccnc4N)nc4ccc(-n5cccn5)nc43)ccc21 , and I need its recorded pIC50.
[reply] 6.67
